- testedTarget: Voltage-gated potassium channel subunit beta-2 (Rattus norvegicus)
- testProtocol: inhibitors of rat Kvbeta2 reductase activity – biochemical, NADPH fluorescence, primary screen (AID 622);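 further: slope of raw intensity against log time taken from 70 to 1610 s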
- reportedConditions: recombinant KvBeta, 4-cyanobenzaldehyde reduction, at 10 µM, stronger effect = higher value
// label = Fulfilled if fluorescence slope is not less than -0.5, otherwise Not fulfilled

{"compound": "O=C(NC1=NCCS1)c1nc(-c2ccccc2)n(-c2ccccc2)n1", "label": "Fulfilled"}
{"compound": "S=c1[nH]ncn1-c1ccccn1", "label": "Fulfilled"}
{"compound": "CN(C)c1ccc(NC(=O)Cn2cc3c(n2)CCCC3)cc1", "label": "Fulfilled"}
{"compound": "CCOC(=O)C1CCN(S(=O)(=O)c2cccc(-c3csc(C)n3)c2)CC1", "label": "Fulfilled"}
{"compound": "CCOc1ccccc1NC(=O)CC1Nc2cc(C)c(C)cc2NC1=O (stereo not given)", "label": "Fulfilled"}

--- query ---
Ask | State whether the measured fluorescence slope reaches -0.5, counting equality as reaching it, for COc1ccc(N(CC(=O)Nc2ccc(F)c(Cl)c2)S(=O)(=O)c2c(C)noc2C)cc1
Reply | Fulfilled

----------
- testProtocol: TLR3 IRF3 reporter activation blockers – cell-based, poly I:C stimulus, luciferase, 10K MLSCN set, primary screen (AID 602277)
- reportedConditions: HEK293-TLR3 RL24 IRF3 luciferase reporter, at 10 µM, stronger effect = higher value
endpointName: inhibition (%)
Please respond with the number in % and leave the unit unwritten.

Use these answered entries as a reference point.
{"molecule": "CCn1c(C)c(CCC(=O)O)c(=O)n2nc(-c3ccccc3OC)cc12", "measured": 2.68}
{"molecule": "N#CC1=C(N)S[C@H](C(=O)C23CC4CC(CC(C4)C2)C3)[C@H]1c1ccncc1", "measured": 23.4}
{"molecule": "O=C(Cn1c(-c2cncs2)nc2ccccc21)NC1CCCC1", "measured": 16.2}
{"molecule": "Fc1cccc(Cl)c1Cn1nnc2c(NCc3ccccn3)ncnc21", "measured": 9.56}
{"molecule": "Cn1c(=O)c2c(-c3ccccc3)n(CCCN3CCOCC3)cc2n(C)c1=O", "measured": -18.1}

Ask | # return recorded inhibition for entry C=CCN1C(=O)CS/C1=N/c1nccs1
Reply | 14.3

Ask | Tell us which inhibition value is on record for Cc1cc(C)cc(NC(=O)C2CCCN(c3nccc(C)n3)C2)c1 (stereo unspecified)
Reply | 18.5

Ask | Supply reported inhibition belonging to this molecule: O=C(NC12CC3CC(CC(C3)C1)C2)N1CCN(C(=O)C2CCCO2)CC1 (stereo unspecified)
Reply | 11.1

Ask | Answer with the recorded inhibition of Cc1ccc(NC(=O)c2cc(S(=O)(=O)N3CCC4(CC3)OCCO4)ccc2F)cc1 only.
Reply | -22.3

Ask | Provide only the value of recorded inhibition for COc1ccc(NC(=O)CN(c2cc(C)cc(C)c2)S(=O)(=O)c2c(C)noc2C)cc1OC
Reply | 38

Ask | Answer with the recorded inhibition for the molecule listed here: COc1cc(-c2nnc(SCc3c(F)cccc3Cl)o2)cc(OC)c1OC
Reply | 1.41

----------
// reported nuclei count per item
- testProtocol: reduction of polyQ htt aggregates in cells – imaging, exon1htt(103Q)mCFP cells, high-content imaging, primary screen (AID 483);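 further: compound exposure lasted 3 days before fixation; percent of the per-plate median nuclei count of sample wells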
- reportedConditions: exon1htt(103Q)mCFP cell line, aggregate imaging, at 2 µM; measured here: cell count, toxicity
Hi! Could you send only the number? It should be in %, unit omitted.

Study these solved cases before continuing.
{"compound": "CCOC(=O)c1sc(Nc2nc3c(OC)cccc3s2)nc1C", "nuclei count [%]": 106}
{"compound": "CCN1CCN(C(=O)C2CC(c3ccc(F)cc3)=NO2)CC1 (configuration not stated)", "nuclei count [%]": 102}
{"compound": "Cc1onc(-c2c(Cl)cccc2Cl)c1C(N)=O", "nuclei count [%]": 98.3}

Ask | Report nuclei count for Cc1csc(NC(=O)CCCSc2nc3ccccc3s2)n1
Reply | 97.4

Ask | Please list nuclei count recorded for the compound Cc1cc(C)nc(SC2=CS(=O)(=O)c3ccccc32)n1
Reply | 107

Ask | Return the recorded nuclei count value; entry: COc1ccc(C2C(C(=O)N3CCC(C)CC3)c3ccccc3C(=O)N2C)cc1 (configuration not stated)
Reply | 91.5

Ask | Give recorded nuclei count. O=C(O)c1cccc(NS(=O)(=O)c2ccc3nnn(O)c3c2)c1
Reply | 108
